These entries and their values trace back to paper PMC3589453.

- test.system: T1, p75CTD monomer (p75CTD C379S/C416S) (rat, UniProt P07174 334-425, C379S | C416S, biotinylated for the BLI assay)
- T1 construct: p75NTR, rat, residues 334-425; Mutant of m3; the tag is that of the parent construct; Biotinylated for BLI, coupled onto a CM-5 chip for SPR; also called double cysteine residue mutant
- T1 sequence (looked up): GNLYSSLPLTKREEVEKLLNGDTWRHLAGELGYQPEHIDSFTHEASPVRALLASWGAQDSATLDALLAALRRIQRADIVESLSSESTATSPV
- experiment.description: SPR; Biacore 3000, 25 °C; p75CTD monomer and dimer coupled onto a CM-5 chip at equal molarities; NRIF peptide flowed over; 50 mM Hepes-KOH pH 7.5, 100 mM KCl, 5% glycerol, 0.005% Tween-20
- measurement.parameters: both partners purified
experimental.readout: Kd

MESGAGRASDNSLLTHALPVKSHQKG [NRIF peptide (residues 552-577), chemically synthesized]; ~10 µM
